- system name: T1, NC1 peptide … / HLA-A*02:01 complex (human)
- T1 construct: whole, on cells; On pulsed T2 cells; also pulled down from BV173 lysate (HLA-A*02) and presented on JMN cells
- assay summary: FACS, scFv phage on T2 cells loaded with single peptide

{"columns": ["binder", "binding result"],
 "data": [
  ["Clone 19 scFv phage clone (Clone 19 scFv) (scFv) scFv: NFMLTQPHSVSESPGKTVTISCVRSSGSVASEFVQWYQQRPGHAPTLVIYNDFQRPSGVPDRFSGSIDKSSNSASLTISGLKAEDEADYYCQSYDQSSSIVFGGGTKLTVLGSRGGGGSGGGGSGGGGSLEMAEVQLVQSGAEVKKPGESLKISCKGSGYSFTTYWIGWVRQMPGKGLEWMGIIYPGDSDTTYSPSFQGQVTISADKSLSIAYLQWSSLKASDTAMYYCARYGGQYFWSDSFDSWGQGTLVTVSS", "no binding"],
  ["Clone 1 scFv phage clone (Clone 01 scFv) (scFv, also called phage clone 1) scFv: DIQLTQSPSSLSASVGDRVTITCRASQGIRNDLGWYQQKPGKAPKLMIYAASSLQSGVPSRFSGSGSGTDFTLTISSLQPEDFATYYCLQDYDYPLTFGGGTKLEIKRSRGGGGSGGGGSGGGGSLEMAEVQLVQSGAEVKKPGESLKISCEASGYSFSSNWIAWVRQRPGKGLEWMGIIYPGDSDTRYSPSFQGQVTMSADMSISTAYLQWSSLKASDTAMYYCARFAGPGMWSYGFDYWGQGTLVTVSS", "no binding"],
  ["Clone 14 scFv phage clone (Clone 14 scFv) (scFv) scFv: QSVLTQPPSVSAAPGQRVTISCSGSTSNIGSNYVSWYQQFPGTAPKLLIYDSDKRISGIPDRFSGSKSGTSATLGITGLQTGDEADYYCGTWDSSLTVGVFGGGTKVTVLGSRGGGGSGGGGSGGGGSLEMAQLQLQESGPGLVKPSGTLSLTCAVSGGSISSSNWWSWVRQPPGKGLEWIGEIYHSGSTNYNPSLKSRVTISVDKSKNQFSLKLSSVTAADTAVYYCARYFGQKYDYWGQGTLVTVSS", "no binding"]
]}
